test: Half life in rat at 1 mg/kg, iv; assay type: ADME, organism-based; set-up: dose 1 mg/kg, route intravenous; details: in vivo
observable: half-life

q: Consider the compound CCc1c(CN[C@H]2CC[C@@H](F)C2)nc(-c2ncccc2Cl)n1-c1ccc(C)nc1 and give its measured half-life.
a: 30 min

* * *

test: Oral bioavailability in rat at 3 mg/kg; format: ADME, organism-based; conditions: in vivo
observable: bioavailability (%)
Answers are plain numbers, in %.

q: Consider the compound CCc1c(CN[C@H]2CC[C@@H](F)C2)nc(-c2ncccc2Cl)n1-c1ccc(C)nc1 and give its measured bioavailability.
a: 10

* * *

biological target: UniProt:P41146; experiment: Displacement of [125I]Tyr14-nociceptin from human ORL1 receptor expressed in CHO cells at 1 uM; type: cell-based
observable: inhibition (%)
One number for each entry, in %.

Use these answered entries as a reference point.
{"line_notation": "Clc1ccc(-c2nc(CNC3CCCC3)nn2-c2ccc(Cl)cc2Cl)cc1", "system_name": "UniProt:P41146", "data_value": 48}
{"line_notation": "Clc1ccc(-c2oc(CNC3CCCC3)nc2-c2ccc(Cl)cc2Cl)cc1", "system_name": "UniProt:P41146", "data_value": 28}

Give inhibition for each listed item.
1. Clc1ccc(-c2c(-c3ccc(Cl)cc3Cl)nc(CNC3CCCC3)n2C2CCCC2)cc1
2. FC(F)(F)Cn1c(CNC2CCCC2)nc(-c2ccc(Cl)cc2Cl)c1-c1ccc(Cl)cc1
3. Cc1c(CNC2CCCC2)nnn1-c1ccc(F)c(F)c1
4. Cc1nn(-c2ccccc2)c(C)c1CNC1CCCC1
5. Cc1c(CNC2CCCC2)oc(-c2ccc(Cl)cc2Cl)c1-c1ccc(Cl)cc1

a:
[43, 32, 40, 44, 25]

Give inhibition for each listed item.
1. Clc1ccc(-c2sc(CNC3CCCC3)nc2-c2ccc(Cl)cc2Cl)cc1
2. Cn1c(CNC2CCCC2)nnc1-c1cc(F)cc(F)c1
3. Clc1ccc(-c2c(-c3ccc(Cl)cc3Cl)nc(CNC3CCCC3)n2C2CCCCC2)cc1

a:
[7, 19, 48]

q: Consider the molecule CC(C)(C)n1c(CNC2CCCC2)nc(-c2ccc(Cl)cc2Cl)c1-c1ccc(Cl)cc1 and give its measured inhibition.
a: 26

* * *

Task for the reader: assign each of the following molecules its reported pIC50.
biological target: Nociceptin receptor (Homo sapiens); assay: Antagonist activity at human cloned ORL1 receptor expressed in CHO cells assessed as inhibition of nociceptin/orphanin FQ-stimulated [35S]GTPgammaS binding; format: functional, cell-based
Give bare numbers, as −log10 of the molar value.

{"line_notation": "CCc1c(CN[C@H]2CC[C@@H](F)C2)nc(-c2ncccc2Cl)n1-c1ccc(C)nc1", "observable": "pIC50", "data_value": 8.64}

Give pIC50 for each listed item.
1. Cc1ccc(-n2c(-c3ncccc3Cl)nc(CNC3CCCC3)c2C(C)C)cn1
2. Cc1nc(CN[C@H]2CC[C@@H](F)C2)c(C(C)C)n1-c1cc(F)cc(F)c1
3. Cc1ccc(-n2c(-c3ncccc3Cl)nc(CN[C@H]3CC[C@@H](F)C3)c2C)cn1
4. COCCc1nc(CN[C@H]2CC[C@@H](F)C2)n(C(C)C)c1-c1ccc(Cl)cc1
5. Cc1ccc(-n2c(-c3ncccc3Cl)nc(CN[C@H]3CC[C@@H](F)C3)c2C(C)C)cn1

a:
[8.02, 8.35, 8.43, 8.25, 8.64]

* * *

assay: Efflux ratio of permeability from basolateral to apical side over apical to basolateral side in pig L-MDR1 cells overexpressing human MDR1
Task for the reader: assign each of the following compounds its reported Ratio.

Use these answered entries as a reference point.
{"line_notation": "Cc1ccc(-n2c(-c3ncccc3Cl)nc(CNC3CCCC3)c2C(C)C)cn1", "Ratio": 22.9}
{"line_notation": "Cc1nc(CNC2CCCC2)n(C(C)C)c1-c1ccc(Cl)cc1", "Ratio": 1}
{"line_notation": "Cc1nc(CN[C@H]2CC[C@@H](F)C2)c(C(C)C)n1-c1cc(F)cc(F)c1", "Ratio": 3.2}
{"line_notation": "CCc1c(CN[C@H]2CC[C@@H](F)C2)nc(-c2ncccc2Cl)n1-c1ccc(C)nc1", "Ratio": 19.7}

Pending compound:
q: Consider the compound Cc1ccc(-n2c(-c3ncccc3Cl)nc(CN[C@H]3CC[C@@H](F)C3)c2C(C)C)cn1 and give its measured Ratio.
a: 21.8

* * *

experiment: Metabolic stability in human liver microsomes at 1 uM after 30 mins; type: ADME, Microsome; conditions: read-out: Stability
observable: remaining at 0.5 h, 1 µM (%)
Numbers only, in %.

q: Consider the compound CCc1c(CN[C@H]2CC[C@@H](F)C2)nc(-c2ncccc2Cl)n1-c1ccc(C)nc1 and give its measured remaining at 0.5 h, 1 µM.
a: 85

* * *

assay: Clearance in rat at 1 mg/kg, iv; type: ADME, organism-based; set-up: dose 1 mg/kg, route intravenous; conditions: in vivo
observable: clearance (mL/min/kg)
One number for each entry, in mL/min/kg.

q: Consider the compound CCc1c(CN[C@H]2CC[C@@H](F)C2)nc(-c2ncccc2Cl)n1-c1ccc(C)nc1 and give its measured clearance.
a: 114

* * *

target: Nociceptin receptor (Homo sapiens, UniProt P41146); assay: Displacement of [125I]Tyr14-nociceptin from human ORL1 receptor expressed in CHO cells; assay type: cell-based
Sequence (P41146 whole entry): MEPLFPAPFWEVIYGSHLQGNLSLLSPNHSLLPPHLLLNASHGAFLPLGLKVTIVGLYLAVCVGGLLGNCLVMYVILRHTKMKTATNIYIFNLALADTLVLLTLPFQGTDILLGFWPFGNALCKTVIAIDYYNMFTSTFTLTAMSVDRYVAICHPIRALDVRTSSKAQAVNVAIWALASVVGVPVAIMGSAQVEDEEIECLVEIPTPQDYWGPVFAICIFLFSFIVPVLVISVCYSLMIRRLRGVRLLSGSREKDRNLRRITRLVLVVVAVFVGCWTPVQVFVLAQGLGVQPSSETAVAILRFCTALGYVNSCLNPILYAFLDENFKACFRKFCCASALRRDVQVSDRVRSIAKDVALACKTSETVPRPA
observable: pIC50
One number for each entry, as −log10 of the molar value.

Use these answered entries as a reference point.
{"line_notation": "Cc1nc(CN[C@H]2CC[C@@H](F)C2)c(C(C)C)n1-c1cc(F)cc(F)c1", "pIC50": 8.07}
{"line_notation": "Cc1c(CNC2CCCC2)cc(-c2ccc(Cl)cc2Cl)n1-c1ccc(Cl)cc1", "pIC50": 6.70}
{"line_notation": "Cc1ccc(-n2c(-c3ncccc3Cl)nc(CNC3CCCC3)c2C)cn1", "pIC50": 7.59}

Give pIC50 for each listed item.
1. Cc1c(CNC2CCCC2)nc(-c2ccc(Cl)cc2Cl)n1-c1ccc(Cl)cc1
2. CCC(CC)n1c(CNC2CCCC2)nc(-c2ccc(Cl)cc2Cl)c1-c1ccc(Cl)cc1
3. CCc1c(CN[C@H]2CC[C@@H](F)C2)nc(-c2ncccc2Cl)n1-c1ccc(C)nc1

a:
[7.55, 6.80, 8.49]

Give pIC50 for each listed item.
1. COCCc1nc(CN[C@H]2CC[C@@H](F)C2)n(C(C)C)c1-c1ccc(Cl)cc1
2. CC(C)Cn1c(CNC2CCCC2)nc(-c2ccc(Cl)cc2Cl)c1-c1ccc(Cl)cc1
3. Clc1ccc(-c2cc(CNC3CCCC3)nn2-c2ccc(Cl)cc2Cl)cc1
4. CC(C)n1c(CNC2CCCC2)nc(-c2ccc(Cl)cc2Cl)c1-c1ccc(Cl)cc1
5. FC(F)Cn1c(CNC2CCCC2)nc(-c2ccc(Cl)cc2Cl)c1-c1ccc(Cl)cc1
6. Cn1c(CNC2CCCC2)nc(-c2ccc(Cl)cc2Cl)c1-c1ccc(Cl)cc1

a:
1. 8.12
2. 6.27
3. 6.89
4. 7.48
5. 6.30
6. 6.28

Give pIC50 for each listed item.
1. Cn1c(CNC2CCCC2)nc(-c2ccc(Cl)cc2)c1-c1ccc(Cl)cc1Cl
2. Cc1ccc(-n2c(-c3ncccc3Cl)nc(CN[C@H]3CC[C@@H](F)C3)c2C)cn1
3. Cc1nc(CNC2CCCC2)n(C(C)C)c1-c1ccc(Cl)cc1
4. Clc1ccc(-c2c(-c3ccc(Cl)cc3Cl)nc(CNC3CCCC3)n2C2CCC2)cc1
5. Cc1ccc(-n2c(-c3ncccc3Cl)nc(CNC3CCCC3)c2C(C)C)cn1

a:
[6.07, 8.04, 7.96, 6.28, 8.33]

Give pIC50 for each listed item.
1. FCCn1c(CNC2CCCC2)nc(-c2ccc(Cl)cc2Cl)c1-c1ccc(Cl)cc1
2. Clc1ccc(-c2c(-c3ccc(Cl)cc3Cl)nc(CNC3CCCC3)n2C2CC2)cc1
3. Cc1ccc(-n2c(-c3ncccc3Cl)nc(CN[C@H]3CC[C@@H](F)C3)c2C(C)C)cn1
4. Clc1ccc(-c2nc(CNC3CCCC3)cn2-c2ccc(Cl)cc2Cl)cc1
5. CCn1c(CNC2CCCC2)nc(-c2ccc(Cl)cc2Cl)c1-c1ccc(Cl)cc1
6. FCC(CF)n1c(CNC2CCCC2)nc(-c2ccc(Cl)cc2Cl)c1-c1ccc(Cl)cc1

a:
6.80
6.72
8.85
6.21
6.80
7.02

* * *

assay: Metabolic stability in rat liver microsomes at 1 uM after 30 mins; format: ADME, Microsome; conditions: read-out: Stability
observable: remaining at 0.5 h, 1 µM (%)
Answers are plain numbers, in %.

q: Consider the molecule CCc1c(CN[C@H]2CC[C@@H](F)C2)nc(-c2ncccc2Cl)n1-c1ccc(C)nc1 and give its measured remaining at 0.5 h, 1 µM.
a: 82
